# method: protein stability index of a GFP-peptide fusion (yeast GPS) (PSI 1-4); higher = more stable; sorted into four equal gates, so the index is relative within each strain
# run-parameters: san1∆
Respond with class 1 for protein stability index values of 3 and above, class 0 for values below.

Take a look at these entries with their results.
ADILCPLLESFITFSLD [IRR1] = class 0
DISAMQPVNPKPFLKGL [SMX3] = class 1
ISLVDDIINAVNEIMYK [MTW1] = class 0
EKIRPLRSRSFKSTESN [YMR129W/POM152] = class 0
ENNDDALDLDLDLFDPD [MED4] = class 0

Here is another sequence to look at.
Kindly determine if protein stability index recorded for CSGSGMGGVSALRGMFK [FAS2] is above or exactly 3.
class 1
